# System: P388
# test_details: Inhibition of P388 murine leukemia cell proliferation
# Assay type: functional, cell-based
# stated_conditions: Mus musculus
property: IC50 (nM)
Answers are plain numbers, in nM.

Input: // IC50 lookup, key: CO[C@H]1[C@H](O)[C@@H](O)[C@H](n2c3c(Cl)cccc3c3c4c(c5c6cccc(Cl)c6[nH]c5c32)C(=O)NC4=O)O[C@@H]1CO
Output: 500

----------
Would you kindly list IC50 for each of these compounds?
# system_tested: Protein kinase C alpha type (Homo sapiens)
# test_details: Inhibition of Protein kinase C alpha

CO[C@H]1[C@H](O)[C@@H](O)[C@H](n2c3ccccc3c3c4c(c5c6ccccc6[nH]c5c32)C(=O)N(C)C4=O)O[C@@H]1CO = > 100 µM
CO[C@H]1[C@H](O)[C@@H](O)[C@H](n2c3c(Cl)cccc3c3c4c(c5c6cccc(Cl)c6[nH]c5c32)C(=O)NC4=O)O[C@@H]1CO = > 100 µM
CN1C(=O)c2c(c3c4ccccc4n(C4OC(CO)C(O)C(O)C4O)c3c3[nH]c4ccccc4c23)C1=O (stereo in doubt; 8) = > 100 µM
CC(=O)OCC1OC(n2c3ccccc3c3c4c(c5c6ccccc6[nH]c5c32)C(=O)N(C)C4=O)C(OC(C)=O)C(OC(C)=O)C1OC(C)=O (stereo in doubt; 3) = > 100 µM

Now take the following compound into account.
Input: // IC50 lookup, key: CN1C(=O)c2c(c3c4ccccc4n(C4OC(CO)C(O)C(O)C4O)c3c3[nH]c4ccccc4c23)C1=O (stereo in doubt; 9)
Output: 62 µM

Data provenance is ChEMBL document CHEMBL1130191.
